# EXPERIMENTAL SYSTEM: SmCB1 (Schistosoma mansoni, UniProt Q8MNY2, T185A/T300A)
# Sequence (Q8MNY2 87-340 T185A/T300A): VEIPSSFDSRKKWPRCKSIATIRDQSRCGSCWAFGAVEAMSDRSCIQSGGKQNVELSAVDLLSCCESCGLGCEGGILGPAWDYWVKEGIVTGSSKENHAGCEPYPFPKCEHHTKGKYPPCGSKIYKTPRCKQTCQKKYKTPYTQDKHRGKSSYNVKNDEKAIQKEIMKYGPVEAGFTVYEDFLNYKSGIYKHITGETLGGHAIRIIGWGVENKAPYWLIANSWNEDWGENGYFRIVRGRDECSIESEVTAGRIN
# PROTOCOL SUMMARY: SmCB1 IC50 determination with 30 min preincubation
# Type: biochemical, S. mansoni
# Protocol: Inhibition measurements were performed in duplicate in 96-well microplates (100 μL assay volume) at 37 °C. […] Substrate hydrolysis was monitored in an Infinite M1000 microplate reader (Tecan) at excitation and emission wavelengths of 360 and 465 nm, respectively, for up to 150 min. […] The KM value determined for SmCB1 was 25 μM. […] Substrate hydrolysis was monitored for 30 min in a microplate reader as described above. […]
MEASUREMENT KIND: IC50 (µM)

COMPOUND	MEASUREMENT KIND	UNIT SYMBOL	DATA VALUE
CC[C@H](C)[C@@H](C(=O)O[C@@H](CC(C)C)C(=O)N[C@@H](CC(C)C)C(=O)N[C@@H](C)/C=C/C(=O)N1C(=O)C=C(OC)[C@@H]1C)N(C)C [gallinamide A]	IC50	µM	0.044
COC1=CC(=O)N(C(=O)/C=C/[C@H](C)NC(=O)[C@H](CC(C)C)NC(=O)[C@H](CC(C)C)OC(=O)[C@H](Cc2ccccc2)N(C)C)[C@H]1Cc1ccccc1 [compound 6]	IC50	µM	0.517
CCC(C)C(C(=O)OC(CC(C)C)C(=O)NC(CC(C)C)C(=O)NC(C)C=CC(=O)N1C(=O)C=C(OC)C1CC(C)C)N(C)C (stereo not drawn) [compound 1]	IC50	µM	0.092
